- Test system: HepG2
- measurement_description: cytotoxicity call (relative viability < 0.9)
- test_conditions: 10 µM
The whole screen tested about 39,000 compounds, of which about 3,300 (8.5%) were called active. This excerpt belongs to a sample that is enriched for actives.
Outcomes you can answer with include only these: active, inactive

Example cases with answers are listed next.
structure_smiles	assigned_class
C=CCOC[C@H]1NCCc2c1nnn2CC	inactive
C[C@@H]1CCCCO[C@@H](CN(C)CC2CCCCC2)[C@@H](C)CN([C@@H](C)CO)C(=O)c2cc(N(C)C)ccc2O1	inactive
C=CCC[C@H](Cc1ccc(F)cc1)C(=O)OC[C@@H](Cc1c[nH]c2ccccc12)NC(=O)[C@H](CC=C)CC(=O)N[C@@H](CO)Cc1ccccc1	active
C=CCC[C@H](Cc1ccc(F)cc1)C(=O)OC[C@H](Cc1c[nH]c2ccccc12)NC(=O)[C@@H](CC=C)CC(=O)N[C@H](CO)Cc1ccccc1	active
CC(C)NC(=O)Nc1ccc2c(c1)CC(=O)N([C@H](C)CO)C[C@@H](C)[C@H](CN(C)S(=O)(=O)c1ccc(F)cc1)O2	inactive

*Q* Per the assay record, what outcome was assigned to COc1ccc(CN(C)C[C@H]2Oc3ccc(NC(=O)Nc4ccc(C(F)(F)F)cc4)cc3C(=O)N([C@@H](C)CO)C[C@@H]2C)cc1 ?
*A* active

*Q* Per the assay record, what outcome was assigned to C=CC[C@@H](CC(=O)N[C@H](CO)Cc1ccccc1)C(=O)N[C@H](COC(=O)[C@@H](CC=C)Cc1ccc(F)cc1)Cc1c[nH]c2ccccc12 ?
*A* inactive
